B1: HDV Ribozyme (parent)
chain: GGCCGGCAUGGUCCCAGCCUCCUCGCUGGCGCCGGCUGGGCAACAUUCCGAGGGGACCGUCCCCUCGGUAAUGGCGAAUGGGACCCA

# Variants of: B1
# PROTOCOL_SUMMARY: self-cleavage, relative activity (ratio to wild type); higher = more cleavage; co-transcriptional
self-cleavage values by entry
Just the number.

Here's what some known entries look like.
> print(dat)
    mutation.name  reported.result
 1      U23A G28A                0
 2      G17A G34U           0.0346
 3      A45C G73U            0.193
 4      A45U A83G            0.847
 5      A77C A87G            0.208
 6      C13U C30U            0.261
 7      A56C G73U            0.521
 8      U23A C75A            0.277
 9      C41G G54C            0.849
10       G2U G73A           0.0484

Task: // lookup self-cleavage for G10A C64G
Output: 0.749

Task: So what's the measured self-cleavage for this one? G10U G53A
Output: 0.769

Task: // returns reported self-cleavage for input U27C G31A
Output: 0.251

Task: So what does the record say about self-cleavage for G10U C13U ?
Output: 0.122

Task: GET /values?readout=self-cleavage&item= G28A G53U
Output: 0.0615

Task: Which self-cleavage value belongs to U37A A42U ?
Output: 0.131
